- Test system: A498 renal
- assay-text: NCI-60 one-dose screen, 48 h
- run-conditions: 10 µM
About 83,000 compounds went through this panel and 20% of them were active in at least one assay; those are over-represented in the sample as a whole. Calls of active or inactive are those of the source. The calls were made as follows: active = growth percent below 10; inactive = the rest.
Just give me one of these, please: active, inactive

>>> category_label("O=C(Nc1ccc(Br)cc1)c1cc(Br)cc(Br)c1O")
"inactive"

Data request: Dear colleague, could you share the recorded outcome for COc1cc2c(cc1OCCCCn1c(-c3cccs3)nc3ccccc31)N=C[C@@H]1CCCN1C2=O when you have a moment?
Data returned: active

Data request: Quick one: COC(=O)CCc1c[nH]c2ccc(N(CCCl)CCCl)cc12
Data returned: inactive

Data request: Quick one: CC1=C([Te]c2ccc(O)cc2)C(=O)c2ccccc2C1=O
Data returned: active

Data request: Quick one: COc1ccc(/C(C)=C(\c2ccc(OCCN3CCOCC3)cc2)c2ccc(OC(=O)Cc3ccccc3)cc2)cc1
Data returned: inactive

###

- System: A498 renal
- assay-text: NCI-60 one-dose screen, 48 h (100 = growth as untreated, 0 = no growth, -100 = all killed)
- run-conditions: 10 µM
Compounds without any hit were thinned out: in the full panel of roughly 83,000, 20% have a hit.
Kindly state growth for each of the entries shown.
Give bare numbers, in %.

>>> result("C#Cc1ccc2c(c1)C(c1ccccc1F)=NCC(=O)N2C")
19.2

For each of the compounds below, note its growth.
1. O=C1CN=C(c2ccc(Cl)cc2)c2sccc2N1
2. CC[C@H](C)[C@H](NC(=O)[C@H]1CCCCN1C)C(=O)N(C)[C@H](C[C@@H](O)c1nc(C(=O)N[C@@H](Cc2ccccc2)C[C@H](C)C(=O)O)cs1)C(C)C
3. O=C1NC(=O)C(=Cc2cn(CCCCCCn3c4ccccc4c(=O)c4ccccc43)c3ccccc23)C(=O)N1
4. COc1ccc2c(c1)c(-c1nc(-c3cn(C)c4ncccc34)cs1)cn2CCCCN1CCCCC1

Data returned:
[102, 76.2, -49.3, 71.8]

###

Kindly state growth for each of the entries shown.
- System: A498 renal
- assay-text: NCI-60 one-dose screen, 48 h (100 = growth as untreated, 0 = no growth, -100 = all killed)
- run-conditions: 10 µM
About 83,000 compounds went through this panel and 20% of them were active in at least one assay; those are over-represented in the sample as a whole.
Give bare numbers, in %.

>>> result("COc1ccc(/C=C\\c2cc(OC)c(OC)c(OC)c2)cc1OCC(=O)Nc1nc2ccc(OC(F)(F)F)cc2s1")
30.2
>>> result("CC(C)CCC1(CCCl)C(=O)NC(=O)NC1=O")
89.4
>>> result("CC(=O)c1ccc(C(=O)NCC2CCC3(CC2)OOC2(CCCCC2)OO3)cc1")
89.2
>>> result("CN(C)CC(C(=O)Cc1ccccc1)c1ccccc1 (stereo not given)")
90.5

Data request: Can you look up growth on A498 renal for Fc1cccc(NCOOC2(OOCNc3cccc(F)c3)CCCCC2)c1 ?
Data returned: 92.4

###

- Test system: NCI-H23 lung
- assay-text: NCI-60 one-dose screen, 48 h (100 = growth as untreated, 0 = no growth, -100 = all killed)
- run-conditions: 10 µM unless noted
This is part of a sample that, as a whole, favours compounds with a hit. Of some 83,000 tested, about 20% had one in any assay.
reported-property: growth (%)
Numbers only, in %.

For each of the compounds below, note its growth.
1. C[C@]12CCc3nc(Nc4ccccc4F)sc3C1=CC[C@@H]1[C@@H]2CC[C@]2(C)C(=O)CC[C@@H]12
2. CC(=O)OC1CCC2(C)C(CCC3C2CC(=O)C2(C)C3CC(Sc3ccc(N(CCCl)CCCl)cc3)C2C(C)=O)C1 (stereo unspecified)
3. CC(=O)O[C@H]1CC[C@H]2[C@@H]3CC=C4c5nc(-c6ccccc6)sc5CC[C@]4(C)[C@H]3CC[C@]12C

Data returned:
77.7
97.3
71.7

For each of the compounds below, note its growth.
1. Cc1ccccc1NC(=NCCCN1CC1)Nc1ccccc1C
2. COC(=O)[C@@H](C)C[C@H](Cc1ccccc1)NC(=O)c1csc([C@@H](C[C@H](C(C)C)N(C)C(=O)[C@@H](NC(=O)[C@H]2CCCCN2C)C(C)C)OC(C)=O)n1
3. [Cl][Hg][n]1c(-c2ccco2)nc2ccccc21

Data returned:
1: 97.7; 2: 23.7; 3: 99

For each of the compounds below, note its growth.
1. Cc1c(C)c([N+](=O)[O-])c(C)c(C)c1[N+](=O)[O-]
2. CC12CCC3C(C=CC4=C(N)C(=O)CCC43C)C1CCC2=O (stereo unspecified)

Data returned:
1: 112; 2: 74.1
